Assay: gradient 5% acetonitrile 3 min, to 50% in 2 min, to 85% in 15 min, held 3 min, 100 µL/min
Conditions: column: Zorbax Extend-C18 2.1 x 50 mm; eluents: water / acetonitrile, 0.1% formic acid
RP-LC retention time vs 700 s: at or above is true, below is false.

compound=O=C(Cn1nc2c3cc(Cl)ccc3ncn2c1=O)Nc1cccc(Cl)c1 class=true
compound=CCCn1ccc2oc(C)c(C(=O)NCc3cccc(Br)c3)c2c1=O class=true
compound=Cn1cnnc1SCCNC(=O)c1ccc(OCC(=O)C2CC2)cc1 class=false
compound=Cc1cc(C)cc(Oc2nccn3c(=O)n(CC(=O)Nc4cc(Cl)ccc4C)nc23)c1 class=true
compound="CCOc1ccc(NC(=O)C2CCCN(C)C2)cc1 (centres undefined)" class=false
compound=O=S(=O)(c1ccccc1)N1CC[C@@H]2COCCN(Cc3ccccc3)[C@@H]2C1 class=false
compound="Cc1ccc(-n2nc(C)c3sc(N4CCCC(C(=O)NCc5ccc(F)cc5Cl)C4)nc32)cc1 (centres undefined)" class=true
compound=CN(C)c1ccc(CNC(=O)C2CCN(c3cnc(N4CCCC4)nc3)CC2)cc1 class=false
compound=Cc1ccccc1-c1noc(CN2C(=O)COc3ccccc32)n1 class=true
